Sourced from the supplement of paper PMC10065799

- System: c-Src;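 further: 11-residue human phosphosite peptides and single-mutation variants displayed on the E. coli surface, counted by deep sequencing, each peptide's frequency after selection divided by its frequency in the unselected input library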;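 further: frequency after pTyr selection over input frequency; kinase dosed for 20-30% of maximal phosphorylation in three min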
- PROTOCOL TEXT: phosphorylation enrichment, bacterial display (enrichment ratio); higher = better substrate or ligand; peptides without Tyr show the background

SEQUENCE RECORD: SPPILYSFFLN [FCRL6_Y239_D244N_YF]
phosphorylation enrichment: 3.41
//
SEQUENCE RECORD: LPSKDYAEVGR [HP_Y272]
phosphorylation enrichment: 0.709
//
SEQUENCE RECORD: QRRLVYYERGA [RYR1_Y245_G248R]
phosphorylation enrichment: 0.426
//
SEQUENCE RECORD: LIFVSYDDWDF [GRIN2A_Y281_S278F_YF]
phosphorylation enrichment: 1.79
//
SEQUENCE RECORD: ACVARYIFKRL [LPCAT3_Y348_W344C]
phosphorylation enrichment: 0.545
//
SEQUENCE RECORD: TSESSYFKSLN [NGEF_Y288_A286S_YF]
phosphorylation enrichment: 0.411
//
SEQUENCE RECORD: LICRRYLVMQR [IL3RA_Y328_V323L]
phosphorylation enrichment: 1.01
//
SEQUENCE RECORD: LPVHFYGHVEH [PYGM_Y204]
phosphorylation enrichment: 0.803
//
SEQUENCE RECORD: DTLMEYLENPK [CYCS_Y68]
phosphorylation enrichment: 0.562
//
SEQUENCE RECORD: IFHENYNAGTF [CFI_Y421_YF]
phosphorylation enrichment: 0.456
//
SEQUENCE RECORD: DLNATYRTIQG [U2SURP_Y634]
phosphorylation enrichment: 0.674
//
SEQUENCE RECORD: HNELYYEEAEH [VANGL1_Y345]
phosphorylation enrichment: 0.708
//
SEQUENCE RECORD: ARLEYYENEKK [IRS1_Y47]
phosphorylation enrichment: 0.528
//
SEQUENCE RECORD: LGGAMYYLEAE [PKHD1_Y452]
phosphorylation enrichment: 2.14
